These data points were gathered from ChEMBL document CHEMBL4808222.

experiment: Drug uptake in C57BL/6J Jcl mouse assessed as plasma concentration at 1 mg/kg, po measured after 60 mins by LC-MS/MS analysis; format: ADME, organism-based; settings: read-out: Drug uptake
value_type: concentration at 1 h
Please answer using the number first and the unit second.

Short answer for Cc1ccc(COC2CN(C(=O)[C@H]3C[C@]4(COC(=O)N4)C3)C2)cc1Cl : concentration at 1 h was 163 ng/mL

---

assay: Drug uptake in C57BL/6J Jcl mouse assessed as plasma concentration at 0.1 mg/kg, po measured after 60 mins by LC-MS/MS analysis; format: ADME, organism-based; conditions: read-out: Drug uptake
value_type: concentration at 1 h (ng/mL)
Answer in ng/mL, number only, no unit symbol.

Short answer for Cc1ccc(COC2CN(C(=O)[C@H]3C[C@]4(COC(=O)N4)C3)C2)cc1Cl : concentration at 1 h was 17
